test: qHTS Assay for Lipid Storage Modulators in Drosophila S3 Cells; settings: BODIPY lipid droplet fluorescence, 18-24 h, cells fed with added oleic acid; measured here: cell count max response;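 also: cells counted by Cell Tracker Red CMTPX staining in the red channel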
In all, about 320,000 compounds went through this assay and about 2,100 (0.66%) were called active. Inconclusive results (about 53%) are left out. This is one part of a sample in which actives are shown more often than they occur.
quantity kind: cell number change (%)
State just the number; it will be interpreted in %.

Example entries begin here.
CC1(C)CC(=O)N(c2ccc(C#N)cc2)C(=O)C1 | -0.525
Cc1oc(C(=O)O)cc1COc1cccc2cccnc12 | 7.93
Cc1ccc(-c2ccc(CCC(=O)O)n2Cc2ccco2)cc1 | 19.5
COc1cc(OC)cc(C(=O)NCc2ccc3[nH]c(C)cc3c2)c1 | -3.37

Task item: Please supply the value of reported cell number change for the item `CCOC(=O)c1sc(NC(=O)c2ccccc2OCC)nc1C`
Reply: 6.73

Task item: Please supply the value of reported cell number change for the item `CCOC(=O)/C(=N\NC(=O)c1ccccc1)c1ccccc1`
Reply: 17.6

Task item: Please supply the value of reported cell number change for the item `Cc1cccc(C(=O)Nc2ccc(O)cc2)c1`
Reply: 4.55

Task item: Please supply the value of reported cell number change for the item `O=c1c(Cc2ccc(Cl)cc2)c(O)ccn1Cc1cccs1`
Reply: 1.85

Task item: Please supply the value of reported cell number change for the item `COc1ccc(CNC(=O)CN2C(=O)NC3(CCCCCC3)C2=O)cc1OC`
Reply: -8.33

Task item: Please supply the value of reported cell number change for the item `C/C(=N\NC(=O)c1nn(C)c(C)c1Br)c1ccc(NC(=O)C2CCCC2)cc1`
Reply: -25.5

Task item: Please supply the value of reported cell number change for the item `CC(=O)Nc1cccc(C(=O)/C=C/c2ccc(/C=C/C(=O)c3cccc(NC(C)=O)c3)cc2)c1`
Reply: -12.7

Task item: Please supply the value of reported cell number change for the item `Cc1cccc(C(=O)Nc2ccc(C(=O)/C=C/c3ccncc3)cc2)c1`
Reply: -3.72

Task item: Please supply the value of reported cell number change for the item `O=C(c1cc(COc2ccc3ncccc3c2)on1)N1CCCC1`
Reply: -24

Task item: Please supply the value of reported cell number change for the item `Cc1cccc(C)c1NC(=O)Cn1c(=O)n(CCCC(=O)NC2CCN(Cc3ccccc3)CC2)c(=O)c2ccccc21`
Reply: -10.3

Task item: Please supply the value of reported cell number change for the item `CCOC(=O)C1CCN(C(=O)c2ccc(Oc3cc(Cl)cc(Cl)c3)o2)CC1`
Reply: 4.65

Task item: Please supply the value of reported cell number change for the item O=C(c1cc(COc2ccc(F)cc2Cl)on1)N1CCCC(OCc2cccnc2)C1 (centres undefined)
Reply: -4.29

Task item: Please supply the value of reported cell number change for the item `Cc1cccc(C)c1NC(=O)CN(C)C(=O)/C=C/c1cccs1`
Reply: -17

All figures here come from PubChem BioAssay AID2685.
